Values compiled from paper PMC9535710.

# EXPERIMENT: SRB cytotoxicity, HCT-15 colon cells
# Type: cell-based, human
# TEST_CONDITIONS: human, HCT-15 colon tumor cells
I'd be grateful if you could share measured inhibition at 50 μM for these entries.
Reply with just the number (in %).

Measured inhibition at 50 μM, C=C(C)[C@@H]1CC[C@]2(C)CC[C@]3(C)[C@H](CC[C@@H]4[C@@]5(C)CC[C@H](O)C(C)(C)[C@@H]5CC[C@]43C)[C@@H]12 : 10.4

Summary for this compound, CC(C)=CCC[C@@H](C)[C@@H]1CC[C@]2(C)C3=C(CC[C@@]12C)[C@@]1(C)CC[C@H](O)C(C)(C)[C@@H]1CC3 : inhibition at 50 μM is 2.18
